Below: a set of entries, each annotated with reported Emax at 30 µM.
Biological target: human mAChR M4 (Homo sapiens, UniProt P08173)
Construct: expressed in transfected cells
Sequence (P08173 whole entry): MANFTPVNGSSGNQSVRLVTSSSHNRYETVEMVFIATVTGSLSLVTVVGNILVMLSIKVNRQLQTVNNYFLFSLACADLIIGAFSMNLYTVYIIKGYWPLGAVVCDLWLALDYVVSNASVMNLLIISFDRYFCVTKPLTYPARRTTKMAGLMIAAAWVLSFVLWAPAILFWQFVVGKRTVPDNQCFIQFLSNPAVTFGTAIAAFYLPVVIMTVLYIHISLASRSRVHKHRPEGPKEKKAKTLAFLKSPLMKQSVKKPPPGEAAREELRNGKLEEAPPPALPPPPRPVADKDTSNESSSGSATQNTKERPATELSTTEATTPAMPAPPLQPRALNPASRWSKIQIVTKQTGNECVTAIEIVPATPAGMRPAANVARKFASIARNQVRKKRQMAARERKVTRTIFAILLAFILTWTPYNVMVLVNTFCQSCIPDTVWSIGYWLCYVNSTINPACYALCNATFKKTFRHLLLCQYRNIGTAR
Assay: mAChR M4 cell-based functional assay (calcium mobilization, CHO-K1 hM4-Gqi5 cells)
Settings: CHO-K1, % ACh maximum at 30 μM; human M4

| compound | measurementUnit | Emax at 30 µM |
| --- | --- | --- |
| [2H]C1([2H])N(c2cnc3c(c2)CN(c2nnc(C#N)cc2C)CC3)c2ccnn2C([2H])([2H])C1([2H])[2H] [Example 416] | % | 115 |
| Cc1cc(C(=O)N2CC(Cl)C2)nnc1N1CCc2ncc(N3CCCn4nccc43)cc2C1 [Example 527] | % | 129 |
| Cc1cc(C#N)cnc1N1CCc2ncc(OCCOC3CCCC3)cc2C1 [Example 433] | % | 74 |
| Cc1cc(C(=O)N2CCCC2)nnc1N1CCc2ncc(N3CCO[C@H](C)C3)cc2C1 [Example 536] | % | 86 |
| Cc1cc(C(=O)N2CCC2)nnc1N1CCc2ncc(N3CCO[C@H](C)C3)cc2C1 [Example 537] | % | 96 |
| Cc1nc(Cl)c(C)c(N2CCc3ncc(-c4cnn(C)c4)cc3C2)n1 [compound 92] | % | 82 |
| Cc1cc(C(=O)NCc2ccc(-n3ccnc3)nc2)cnc1N1CCc2ncccc2C1 [compound 148] | % | 67 |
| Cc1cc(C#N)cnc1N1CCc2ncc(C(F)(F)F)cc2C1 [compound 165] | % | 111 |
| Cc1cc(C(=O)NCc2ccncc2)nnc1N1CCc2ncc(N3CCCn4nccc43)cc2C1 [Example 490] | % | 100 |
| Cc1cnc(F)cc1-c1cnc2c(c1)CN(c1nnc(C#N)c(C)c1C)CC2 [compound 72] | % | 78 |
| Cc1cc2n(n1)CCCN2c1cnc2c(c1)CN(c1nnc(C#N)c(C)c1C)CC2 [Example 363] | % | 90 |
| Cc1c(C#N)nnc(N2CCc3ncc(N4CCCn5nccc54)cc3C2)c1C [Example 342] | % | 86 |
| Cc1c(C#N)nnc(N2CCc3ncc(-c4ccc(N5CC6(COC6)C5)nc4)cc3C2)c1C [Example 332] | % | 83 |
| Cc1cc(C(=O)N(C)Cc2ccncc2)cnc1N1CCc2ncc(-c3cn(C)nc3C)cc2C1 [Example 454] | % | 60 |
| Cc1c(C#N)nnc(N2CCc3ncc(C(F)(F)F)cc3C2)c1C [Example 303] | % | 48 |
| Cc1cc(C#N)nnc1N1CCc2ncc(Nc3ccnn3C)cc2C1 [Example 311] | % | 94 |
| Cc1cnccc1Nc1cnc2c(c1)CN(c1nnc(C#N)cc1C)CC2 [Example 619] | % | 86 |

###

Biological target: human mAChR M4 (Homo sapiens)
Construct: expressed in transfected cells
Test: mAChR M4 cell-based functional assay (calcium mobilization, CHO-K1 hM4-Gqi5 cells)
Settings: Human M4 EC50, positive allosteric modulator activity, increase in the EC20 acetylcholine response, CHO-K1 hM4-Gqi5 cells
assayEndpoint: EC50 (nM)

| structureSmilesString | assayEndpoint | endpointResult |
| --- | --- | --- |
| Cc1nc(Cl)c(C)c(N2CCc3ncc(C4CC4)cc3C2)n1 | EC50 | 57 |
| Cc1nc(Cl)nc(N2CCc3ncc(C4CC4)cc3C2)c1C | EC50 | 70 |
| Cc1cnc2c(c1)CN(c1ncc(C#N)cc1C)CC2 | EC50 | 100 |
| Cc1cc(C#N)cnc1N1CCc2ncc(C3CC3)cc2C1 | EC50 | 71 |
